Measurement target: T1, human TMEM106B (human, UniProt Q9NUM4 2-274)
T1 construct: Full-length, on transiently transfected HEK293 cells, or natively expressed on HeLa, U251 and A549 cells; also called huTMEM106B; huTMEM
Assay summary: FACS, HEK293 transfectants;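 further: hybridoma supernatants incubated 30 min on ice with human TMEM106B-expressing HEK293 cells, binding read as anti-mouse-APC median fluorescence on live cells, relative to secondary-antibody-only wells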
Value kind: fold over negative controls

Examples from the recorded data:
[
  {
    "Binder": "anti-TMEM106B antibody TM-29 (antibody, V domains shown) VH: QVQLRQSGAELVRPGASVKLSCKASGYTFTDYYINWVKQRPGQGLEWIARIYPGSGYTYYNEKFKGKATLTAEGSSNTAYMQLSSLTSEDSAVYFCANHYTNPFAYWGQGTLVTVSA VL: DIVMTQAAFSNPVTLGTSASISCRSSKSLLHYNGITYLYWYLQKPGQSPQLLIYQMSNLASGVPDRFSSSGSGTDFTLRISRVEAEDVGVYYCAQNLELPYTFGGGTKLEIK",
    "fold over negative controls": "> 2 fold"
  },
  {
    "Binder": "anti-TMEM106B antibody TM-9 (antibody, V domains shown) VH: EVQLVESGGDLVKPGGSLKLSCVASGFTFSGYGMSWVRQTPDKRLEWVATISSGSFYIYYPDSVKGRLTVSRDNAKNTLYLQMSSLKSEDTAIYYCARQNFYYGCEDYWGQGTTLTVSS VL: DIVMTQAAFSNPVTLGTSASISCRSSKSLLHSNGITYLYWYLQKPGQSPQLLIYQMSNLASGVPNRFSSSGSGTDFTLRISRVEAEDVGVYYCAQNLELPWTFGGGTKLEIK",
    "fold over negative controls": "> 2 fold"
  },
  {
    "Binder": "anti-TMEM106B antibody TM-18 (antibody, V domains shown) VH: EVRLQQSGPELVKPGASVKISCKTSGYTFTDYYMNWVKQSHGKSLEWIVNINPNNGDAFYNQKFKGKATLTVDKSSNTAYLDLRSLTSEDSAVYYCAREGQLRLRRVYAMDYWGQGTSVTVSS VL: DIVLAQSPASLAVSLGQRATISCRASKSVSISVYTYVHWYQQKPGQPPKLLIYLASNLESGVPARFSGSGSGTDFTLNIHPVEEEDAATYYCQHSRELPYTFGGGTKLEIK",
    "fold over negative controls": "> 2 fold"
  }
]

Then there is this binder:
[Q] Please look up its fold over negative controls: anti-TMEM106B antibody TM-23 (antibody, V domains shown) VH: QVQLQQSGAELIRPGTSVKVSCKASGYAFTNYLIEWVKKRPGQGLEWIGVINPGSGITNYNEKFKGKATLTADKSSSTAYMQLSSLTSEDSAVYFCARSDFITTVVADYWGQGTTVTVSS VL: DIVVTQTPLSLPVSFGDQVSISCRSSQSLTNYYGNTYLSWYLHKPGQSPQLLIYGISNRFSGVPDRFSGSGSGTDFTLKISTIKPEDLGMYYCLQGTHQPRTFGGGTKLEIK
[A] > 2 fold
